test: Water solubility at 25±2° C., dissolution observed within 30 minutes; details: 25 °C, thermodynamic from solid
MEASURED PARAMETER: solubility at 30 min

CCCCC[C@H](O)CC[C@@H]1[C@H]2Cc3cccc(OCC(=O)O)c3C[C@H]2C[C@H]1O [Treprostinil free acid, Treprostinil] = < 0.1 mg/mL

The record that follows has no solubility at 30 min shown yet.
Field solubility at 30 min (entry CCCCC[C@H](O)CC[C@@H]1[C@H]2Cc3cccc(OCC(=O)[O-])c3C[C@H]2C[C@H]1O.[Na+] [Treprostinil sodium salt] ) reads > 100 mg/mL
